Biological target: Mannose-6-phosphate isomerase (Homo sapiens)
Experiment: MPI inhibition at elevated mannose 6-phosphate – biochemical, fluorescence intensity, high mannose 6-phosphate, primary screen (AID 1220)
Conditions: recombinant PMI enzyme, coupled fluorescence intensity; at 20 µM; active compounds read high
In all, about 190,000 compounds went through this assay and about 1,300 (0.68%) were called active. The full list was thinned out, with actives kept by preference.
Measured Endpoint: inhibition (%)
Answers are plain numbers, in %.

Compound	Measured Endpoint	Unit	Readout Number
COC(=O)c1cccc([N+](=O)[O-])c1CN1CCCC(C(N)=O)C1 (stereo unspecified)	inhibition	%	-6.5
CCCCNC(=S)Nc1cccc2cnccc12	inhibition	%	3.6
COc1cc(SC)ccc1C(=O)Nc1ccc(Cl)cn1	inhibition	%	2.4
Cc1cc(C)n(-c2cc(C(=O)O)cc(C(=O)O)c2)n1	inhibition	%	-12.4
COc1ccc(CN=CC2=C(O)CC(C)(C)CC2=O)cc1	inhibition	%	12.4

Record inhibition for all entries; do not skip any.
1. O=C(NC(=S)Nc1ccc2ncccc2c1)c1ccccc1
2. O=S(=O)(c1ccc(Br)cc1)N1CCN=C1SCc1cccnc1
3. O=S(=O)(Nc1nc2ccccc2nc1Cl)c1ccc(Cl)cc1
4. Cc1nn(-c2ccccc2)c2[nH]c(=O)c(CNCc3ccc4c(c3)OCO4)cc12
5. CCOC(=O)c1cnc(SC2CC(=O)N(c3ccc(C)cc3)C2=O)nc1N (stereo unspecified)
6. O=C(CCN1CCCCC1)c1ccc2c(c1)OCCO2
7. NC(=S)Nc1cc2ccccc2c2ccccc12
8. S=C(NCCc1ccccc1)Nc1cccc2cnccc12

Output:
[55.9, 0.3, -2.7, 2.9, -5.1, 43, 65.4, 57.3]

Hi! Can you tell me inhibition for each of these compounds?
1. CCOc1ccccc1N1CC(C(=O)Nc2ccc3c(c2)OCCO3)CC1=O (stereo unspecified)
2. O=C(c1ccccc1)N1CCOC12CCN(c1ncc(C(F)(F)F)cc1Cl)CC2
3. CC(C)c1cc(Nc2cccc(O)c2)cc(C(C)C)c1O
4. NC(=S)Nc1cccc2cc3ccccc3cc12
5. O=C(Cn1cnc2c(nnn2Cc2ccc(F)cc2)c1=O)NCc1ccc(F)cc1
6. Cc1nn(Cc2c(F)c(F)c(F)c(F)c2F)c(C)c1NC(=O)c1ccc(COc2cc(Cl)ccc2Cl)cc1
7. O=S(=O)(Nc1nc2ccccc2nc1Cl)c1ccc2ccccc2c1

Output:
[1.4, 2.1, 53.6, -9, -6.8, 0.7, 60.1]

Task: Can you share its inhibition? I mean this compound: `Cc1ccc(-c2nc3c(c(=O)c4ccccc4n3C)c(=O)n2-c2ccccc2)cc1`
Output: 0.4

---

Target: Mannose-6-phosphate isomerase (Homo sapiens) (UniProt P34949)
Sequence (P34949 whole entry, looked up): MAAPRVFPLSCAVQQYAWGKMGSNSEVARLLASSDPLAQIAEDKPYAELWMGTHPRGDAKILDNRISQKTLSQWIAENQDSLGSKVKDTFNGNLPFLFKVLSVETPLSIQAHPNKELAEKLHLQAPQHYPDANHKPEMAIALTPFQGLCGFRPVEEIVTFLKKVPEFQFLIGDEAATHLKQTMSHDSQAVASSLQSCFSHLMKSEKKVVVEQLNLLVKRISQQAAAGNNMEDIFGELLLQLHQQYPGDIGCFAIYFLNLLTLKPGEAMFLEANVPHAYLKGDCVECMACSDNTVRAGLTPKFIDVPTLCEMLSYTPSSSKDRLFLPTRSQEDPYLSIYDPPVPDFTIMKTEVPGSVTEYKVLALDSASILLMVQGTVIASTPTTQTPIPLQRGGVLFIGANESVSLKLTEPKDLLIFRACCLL
Test: MPI inhibition at elevated mannose 6-phosphate – biochemical, fluorescence intensity, high mannose 6-phosphate, primary screen (AID 1220)
Conditions: recombinant PMI enzyme, coupled fluorescence intensity; at 20 µM; active compounds read high
Hit rate of the full screen: of about 190,000 compounds, about 1,300 (0.68%) were called active. The sample holds actives, similar compounds and a random draw of the others, so the mix is not that of the screen.
Measured Endpoint: inhibition (%)
Answers are plain numbers, in %.

Compound	Readout Number
NC1CCCCC1N=Cc1c(O)n(CCc2ccc(F)cc2)c(=O)[nH]c1=O (stereo not drawn)	2.4
CC(C)(C)c1csc(NC(=O)Nc2ccccc2)n1	7.8
CC1CCC2(CC1)NC(=O)N(NC(=O)CCl)C2=O (stereo not drawn)	-10.3
CS(=O)(=O)c1ccc(C(=O)N2CCc3ccccc3C2)cc1	-6.6
O=C(c1ccc(S(=O)(=O)c2ccccc2)cc1)N1CCc2ccccc2C1	60.2
CC(C)OCCCNC(=O)c1ccc(N(C)S(C)(=O)=O)cc1	6.8

Please go through the list and note inhibition for each compound.
1. CCNc1sc(C(=O)c2cccs2)c(N)c1-c1nc2ccccc2s1
2. O=C(c1ccccc1F)N1CCN(c2ccc([N+](=O)[O-])c3cccnc23)CC1

Output:
[-5.3, 58.4]

---

Molecular target: Mannose-6-phosphate isomerase (Homo sapiens)
Experiment: MPI inhibition at elevated mannose 6-phosphate – biochemical, fluorescence intensity, high mannose 6-phosphate, primary screen (AID 1220)
Settings: recombinant PMI enzyme, coupled fluorescence intensity; at 20 µM
About 1,300 (0.68%) of roughly 190,000 compounds were called active. Cut-off read from the data, not from the text of the source: active = inhibition above about 50%; inactive = the rest. The entries come from a sample that favours actives as a whole.
Field 'call' accepts active, inactive

Compound	Label
Cc1cc(NC(=O)c2ccccc2)n(-c2nc3ccccc3[nH]2)n1	active
Cc1cc(C)nc(N2N=C(C(C)(C)C)CC2=O)n1	inactive
COc1ccc(NC(=O)CSc2nc3c(c(=O)n2-c2ccccc2)SCC3)c(OC)c1	inactive
CCCCCOC(=O)CSc1nc2c(c(=O)[nH]c(=O)n2C)n1CCc1ccccc1	active
CN(C)C(=C(C#N)C#N)N1CCN(c2ccc(Cl)c(Cl)c2)CC1	inactive

Task: Kindly provide the recorded test outcome for the following compound: Cc1ccc(OCC(=O)Nc2nnc(C3CCCO3)s2)c(Br)c1 (configuration not stated)
Output: inactive

Task: Moving on to the next compound: `O=c1cc(CCl)nc2sc3ccccc3n12`
Output: inactive

---

Exercise: for every item that follows, state its recorded inhibition.
Target: Mannose-6-phosphate isomerase (Homo sapiens)
Assay: MPI inhibition at elevated mannose 6-phosphate – biochemical, fluorescence intensity, high mannose 6-phosphate, primary screen (AID 1220)
Details: recombinant PMI enzyme, coupled fluorescence intensity; at 20 µM; active compounds read high
The campaign covered roughly 190,000 compounds. About 1,300 (0.68%) were called active. The full list was thinned out, with actives kept by preference.
Give bare numbers, in %.

These recorded examples may help you get a feel for the data.
Molecule	Assayed System	inhibition / %
CCOC(=O)c1ccc(NC(=O)c2n[nH]c(=O)c3ccccc23)cc1	Mannose-6-phosphate isomerase (Homo sapiens)	-0.1
COc1ccc(NC(=O)CSc2nc(N)c3cc4c(nc3n2)CCCC4)c(OC)c1	Mannose-6-phosphate isomerase (Homo sapiens)	-6.7
COC(=O)c1cccc(NS(C)(=O)=O)c1C	Mannose-6-phosphate isomerase (Homo sapiens)	-5.8
O=C(N/C(=C/c1cccs1)c1nc2ccccc2[nH]1)c1ccccc1	Mannose-6-phosphate isomerase (Homo sapiens)	-4.7
COc1ccc(Cc2n[nH]c(=S)n2C)cc1Br	Mannose-6-phosphate isomerase (Homo sapiens)	0.8
CCOc1cc(C2CC(=O)N3CN(C4CCCCC4)CSC3=C2C#N)ccc1O (stereo not given)	Mannose-6-phosphate isomerase (Homo sapiens)	49
CCn1ncc(NC(=S)NCCc2ccccc2)c1C(N)=O	Mannose-6-phosphate isomerase (Homo sapiens)	5.4
O=C(Nc1ccc2c(c1)OCCO2)Nc1ccc2c(c1)OCO2	Mannose-6-phosphate isomerase (Homo sapiens)	13

Report inhibition for each item below.
1. CCOc1ccc(N(Cc2cc3cc(OC)ccc3[nH]c2=O)C(=O)C2CCCO2)cc1 (stereo not given)
2. CCn1ncc(Br)c1C(=O)Nc1ccc2c(c1)OCCO2
3. COc1ccc2ccccc2c1C1CC(=O)N2CN(C)CSC2=C1C#N (stereo not given)
4. COc1cc(C2CC(=O)N3CN(c4ccccc4C)CSC3=C2C#N)cc(OC)c1OC (stereo not given)

Output:
[13.8, 0.3, 68.7, 11.4]

List reported inhibition for each of these molecules:
1. O=C1c2ccccc2C(Nc2ccc3c(c2)OCCO3)N1Cc1ccco1 (stereo not given)
2. Cc1ccc(NC(=S)Nc2ccc(S(=O)(=O)N3CCOCC3)cc2)cc1S(=O)(=O)N1CCOCC1
3. O=S(=O)(NCc1ccc2c(c1)OCO2)c1cccc(S(=O)(=O)N2CCOCC2)c1
4. Nc1nc(SCC(=O)Nc2cc(S(=O)(=O)N3CCOCC3)ccc2Cl)n[nH]1

Output:
1: 0.2; 2: -1.2; 3: 52.5; 4: -10.9

Please supply inhibition for each of the following items, keeping them in order.
1. CN(C)c1ccc(C=Nc2ccc(N(C)C)cc2)cc1
2. Cc1c(NC(=O)COc2cccc3c2OC(C)(C)C3)c(=O)n(-c2ccccc2)n1C
3. O=C(Nc1ccc2c(c1)OCO2)Nc1ccc2c(c1)OCO2
4. O=C(C[n+]1ccccc1)N/N=C/c1cccs1
5. COc1ccccc1N1CSC2=C(C#N)C(c3ccc(SC)cc3)CC(=O)N2C1 (stereo not given)

Output:
[59.2, -6.1, 15.8, -14, 7.1]

Please give inhibition, item by item, for the list that follows.
1. COc1ccc(/C(=C\Nc2ccc(C)c(C)c2)C(C)=O)cc1OC
2. CCOC(=O)c1ccc(NC(=S)N(CCN2CCCCCC2)Cc2cccs2)cc1
3. O=S(=O)(NCc1ccccc1)c1cccc(S(=O)(=O)N2CCOCC2)c1
4. O=C(COc1ccccc1)Nc1ccc(CSc2ccccc2)cc1

Output:
56.5
2.9
4.1
2.7

---

Biological target: Mannose-6-phosphate isomerase (Homo sapiens) (UniProt P34949)
Assay: MPI inhibition at elevated mannose 6-phosphate – biochemical, fluorescence intensity, high mannose 6-phosphate, primary screen (AID 1220)
Details: recombinant PMI enzyme, coupled fluorescence intensity; at 20 µM
Among all 190,000 compounds or so, about 1,300 (0.68%) were called active. Rule as the data show it: active = inhibition above about 50%; inactive = the rest. What follows is part of a selection rich in actives, with near analogues and random picks from the rest.
Select the correct class. Options are active, inactive and nothing else.

A selection of reference data follows.
Molecule	Label
CCOC(=O)c1c(C)oc2c1c(C(c1ccccc1)N1CCOCC1)c(O)c1ccccc12 (stereo not given)	inactive
Cc1ccc(S(=O)(=O)/N=C(\c2ccccc2)N(C)S(=O)(=O)c2ccccc2)cc1	inactive
Cc1ccc(C)c(N2CCN(CCCNC(=O)Cn3cccc3C(=O)c3ccccc3)CC2)c1	inactive
Cc1cc(C)nc(-n2cc(C(=O)c3cc(F)ccc3O)cn2)n1	active

Task: Recorded test outcome, item `COc1ccc(CC(=O)Nc2ccccc2N2CCOCC2)cc1OC`
Output: inactive

Task: Try the molecule `CCOC(=O)c1c(C)oc2ccc(O)cc12`
Output: inactive

Task: Field entry: `Cc1ccc2cc(CCNC(=O)c3ccc(C)c([N+](=O)[O-])c3)c(=O)[nH]c2c1`
Output: inactive

Task: Would you kindly repeat that for `Cc1sc2cc3c(c(C(=O)c4ccccc4)[n+]2c1C)-c1cccc2cccc-3c12` ?
Output: inactive

Task: Would you kindly repeat that for `O=C(NNc1nc(-c2ccccc2)c2cc(Br)ccc2n1)c1ccc(S(=O)(=O)N2CCCCC2)cc1` ?
Output: inactive

Task: Lookup `Cc1[nH][nH]c(=O)c1C(c1cc([N+](=O)[O-])ccc1O)c1c(C)[nH][nH]c1=O`
Output: inactive
